The values you see were collected from patent US10975068B2.

- Test Target: full-length human RORγt (Homo sapiens (Human))
- Sequence (P51449 other isoform, or with tags, fused parts or gaps): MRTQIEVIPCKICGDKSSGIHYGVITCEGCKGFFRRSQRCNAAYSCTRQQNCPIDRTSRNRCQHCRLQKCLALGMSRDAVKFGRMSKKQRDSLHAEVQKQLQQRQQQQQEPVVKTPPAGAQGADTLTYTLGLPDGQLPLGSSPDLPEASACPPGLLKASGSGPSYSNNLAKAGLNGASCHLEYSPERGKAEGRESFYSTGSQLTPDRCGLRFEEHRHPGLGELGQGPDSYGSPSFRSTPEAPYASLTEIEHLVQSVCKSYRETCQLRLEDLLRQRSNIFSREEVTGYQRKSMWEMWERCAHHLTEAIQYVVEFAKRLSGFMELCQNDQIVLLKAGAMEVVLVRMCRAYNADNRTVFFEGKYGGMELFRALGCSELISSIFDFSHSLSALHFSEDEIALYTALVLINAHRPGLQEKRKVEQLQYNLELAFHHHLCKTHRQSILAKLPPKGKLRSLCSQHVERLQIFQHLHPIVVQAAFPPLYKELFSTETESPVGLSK
- Assay Method Text: RORγt (full-length human) reporter assay, Conditions B or C
- Type: cell-based
- Experimental Setup: at 3 μM compound concentration; read-out: RORγt (FL) Reporter Assay B or C, % inhibition
Measured Metric: inhibition at 3 µM (%)

[[record]]
molecule = "[2H]C([2H])(NC(=O)c1nc(C(=O)N2CCC[C@@H]2C)c(-c2cnc(N[C@@H](CC)C(F)(F)F)cc2C(F)F)s1)C(C)(C)O"
test_target = "full-length human RORγt (Homo sapiens (Human))"
measured_metric = "inhibition at 3 µM"
units = "%"
quantitative_result = 100

[[record]]
molecule = "CC[C@H](Nc1cc(C(F)F)c(-c2sc(C(=O)N[C@@H]3CC[C@H]3O)nc2C(=O)N2CCC[C@@H]2C)cn1)C(F)(F)F (relative stereo)"
test_target = "full-length human RORγt (Homo sapiens (Human))"
measured_metric = "inhibition at 3 µM"
units = "%"
quantitative_result = 101

[[record]]
molecule = "C[C@H](NC(=O)c1nc(C(=O)N2CCC[C@@H]2C)c(-c2cnc(NC(C)(C)C)cc2C(F)(F)F)s1)C(C)(C)O"
test_target = "full-length human RORγt (Homo sapiens (Human))"
measured_metric = "inhibition at 3 µM"
units = "%"
quantitative_result = 108

[[record]]
molecule = "C[C@H]1CCCN1C(=O)c1nc(C(=O)N[C@H](C)C(C)(C)O)sc1-c1cnc(N[C@H](C)C(F)(F)F)cc1C(F)F"
test_target = "full-length human RORγt (Homo sapiens (Human))"
measured_metric = "inhibition at 3 µM"
units = "%"
quantitative_result = 104

[[record]]
molecule = "CC[C@H](Nc1cc(C(F)F)c(-c2sc(C(=O)N[C@H]3CC[C@H]3O)nc2C(=O)N2CCC[C@@H]2C)cn1)C(F)(F)F (relative stereo)"
test_target = "full-length human RORγt (Homo sapiens (Human))"
measured_metric = "inhibition at 3 µM"
units = "%"
quantitative_result = 108

[[record]]
molecule = "O=C(N[C@H]1CC[C@H](O)C1)c1nc(C(=O)N2C3CCC2CC3)c(-c2cnc(N[C@@H](C3CC3)C(F)(F)F)cc2C(F)F)s1"
test_target = "full-length human RORγt (Homo sapiens (Human))"
measured_metric = "inhibition at 3 µM"
units = "%"
quantitative_result = 106

